This collection of values is drawn from the supplement of paper PMC10266784.

B1: library; numbered along this chain (parent)
chain: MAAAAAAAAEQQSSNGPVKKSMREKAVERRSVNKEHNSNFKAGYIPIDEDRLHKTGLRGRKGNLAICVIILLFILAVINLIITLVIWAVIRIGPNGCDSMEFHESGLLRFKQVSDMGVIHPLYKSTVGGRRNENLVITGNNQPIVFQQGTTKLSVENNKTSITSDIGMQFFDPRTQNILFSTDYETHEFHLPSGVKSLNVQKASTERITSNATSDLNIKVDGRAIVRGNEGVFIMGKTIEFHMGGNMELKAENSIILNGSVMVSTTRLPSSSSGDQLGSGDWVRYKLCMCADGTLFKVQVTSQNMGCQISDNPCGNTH

Variants of: B1
Experiment: SGCB cell-surface expression functional score (HA stain, bin4 vs bin1, normalised to synonymous) (log10 ratio); higher = more cell-surface SGCB (functional)
parameter_measured: SGCB cell-surface expression functional score (log10)

>  <mutation_descriptor>
L198E

>  <value_reported>
-2.32

$$$$
>  <mutation_descriptor>
N157G

>  <value_reported>
0.52

$$$$
>  <mutation_descriptor>
S273D

>  <value_reported>
-0.07

$$$$
>  <mutation_descriptor>
F110K

>  <value_reported>
-0.57

$$$$
>  <mutation_descriptor>
H187R

>  <value_reported>
-0.76

$$$$
>  <mutation_descriptor>
Q112K

>  <value_reported>
-0.1

$$$$
>  <mutation_descriptor>
S161N

>  <value_reported>
-0.84

$$$$
>  <mutation_descriptor>
N33P

>  <value_reported>
0.04

$$$$
>  <mutation_descriptor>
I69L

>  <value_reported>
0.2

$$$$
>  <mutation_descriptor>
N217H

>  <value_reported>
0

$$$$
>  <mutation_descriptor>
Q176T

>  <value_reported>
-0.34

$$$$
>  <mutation_descriptor>
T265M

>  <value_reported>
1.41

$$$$
>  <mutation_descriptor>
E133H

>  <value_reported>
0.17

$$$$
>  <mutation_descriptor>
M100H

>  <value_reported>
-1.39

$$$$
>  <mutation_descriptor>
K54A

>  <value_reported>
0.23

$$$$
>  <mutation_descriptor>
K20D

>  <value_reported>
0.22

$$$$
>  <mutation_descriptor>
I162F

>  <value_reported>
-0.81

$$$$
>  <mutation_descriptor>
S154Q

>  <value_reported>
-0.7

$$$$
>  <mutation_descriptor>
V232H

>  <value_reported>
0.69

$$$$
>  <mutation_descriptor>
T294N

>  <value_reported>
0.12

$$$$
>  <mutation_descriptor>
N134P

>  <value_reported>
-0.03

$$$$
>  <mutation_descriptor>
A76F

>  <value_reported>
0.33

$$$$
>  <mutation_descriptor>
G106A

>  <value_reported>
-0.24

$$$$
>  <mutation_descriptor>
P94M

>  <value_reported>
0.27

$$$$
>  <mutation_descriptor>
F40I

>  <value_reported>
0.24

$$$$
>  <mutation_descriptor>
V27G

>  <value_reported>
-0.22

$$$$
>  <mutation_descriptor>
D50Y

>  <value_reported>
0

$$$$
>  <mutation_descriptor>
E230V

>  <value_reported>
0.49

$$$$
>  <mutation_descriptor>
M305F

>  <value_reported>
-0.74

$$$$
>  <mutation_descriptor>
G96F

>  <value_reported>
-2.5

$$$$
>  <mutation_descriptor>
S31A

>  <value_reported>
-0.25

$$$$
>  <mutation_descriptor>
E28R

>  <value_reported>
0.1

$$$$
>  <mutation_descriptor>
T150A

>  <value_reported>
-0.2

$$$$
>  <mutation_descriptor>
R284V

>  <value_reported>
-1.16

$$$$
>  <mutation_descriptor>
L107C

>  <value_reported>
0.24

$$$$
>  <mutation_descriptor>
K34V

>  <value_reported>
0.44

$$$$
>  <mutation_descriptor>
F189P

>  <value_reported>
-0.39

$$$$
>  <mutation_descriptor>
F180T

>  <value_reported>
-1.29

$$$$
>  <mutation_descriptor>
S310A

>  <value_reported>
-0.09

$$$$
>  <mutation_descriptor>
G139T

>  <value_reported>
-0.23

$$$$
>  <mutation_descriptor>
Y285A

>  <value_reported>
-0.68

$$$$
>  <mutation_descriptor>
T265P

>  <value_reported>
0.25

$$$$
>  <mutation_descriptor>
I225A

>  <value_reported>
0.41

$$$$
>  <mutation_descriptor>
V155H

>  <value_reported>
-1.51

$$$$
>  <mutation_descriptor>
E240D

>  <value_reported>
0.58

$$$$
>  <mutation_descriptor>
R130S

>  <value_reported>
-0.4

$$$$
